Give pKd for every item shown.
# ASSAYED TARGET: T1, human IL-6 receptor (soluble hIL-6R) (human, UniProt P08887 20-357, limits assumed, biotin-labeled in the ELISA experiments (sites not given))
# T1 construct: also called biotin-labeled hIL-6R
# T1 sequence: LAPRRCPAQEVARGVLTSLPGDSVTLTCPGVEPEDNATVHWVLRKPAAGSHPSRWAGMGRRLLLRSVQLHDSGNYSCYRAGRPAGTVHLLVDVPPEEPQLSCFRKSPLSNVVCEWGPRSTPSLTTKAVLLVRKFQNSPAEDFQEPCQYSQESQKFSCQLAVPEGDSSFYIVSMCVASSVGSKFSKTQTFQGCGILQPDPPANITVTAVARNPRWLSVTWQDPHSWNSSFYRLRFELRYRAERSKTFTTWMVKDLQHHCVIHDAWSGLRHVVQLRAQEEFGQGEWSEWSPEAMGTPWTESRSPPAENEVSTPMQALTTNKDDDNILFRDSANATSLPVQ
# MEASUREMENT PROTOCOL: SPR Biacore T200, IL-6R immobilised on CM5, antibody analyte in a concentration series, 1 mM ATP, 25 C; KD from plot of equilibrium value against antibody concentration; SPR, IL-6R on the chip, antibody concentration series, 1 mM ATP, 25 C
One number for each entry, as −log10 of the molar value.

[[record]]
binder = "6RDL3C1-4_085 (antibody, human IgG1, kappa, V domains shown, also called 6RDL3C1-4_85) VH: EVQLVESGGDLVKPGGGLRLSCAASGFTFSGHTMNWVRQAPGKGLEWVSSISSRSNYIYYADSVKGRFTISRDNAKNSLYLQMNSLRAEDTAVYYCARYGRLHDRNWVFDYWGQGTLVTVSS VL: QSALTQPPSASGSPGQTVTISCTGTSTDVGDYNYVSWYQQHPGKAPKLMIYQVSKKPSGVPDRFSGSKSGNTASLTVSGLQAEDEADYFCSSRSYGAGVVFGGGTKLTVLR"
reported_result = 6.41

[[record]]
binder = "6RAD2C1-4_026 (antibody, human IgG1, kappa, V domains shown, also called 6RAD2C1-4_26) VH: EVQLVESGGDLVKPGGGLRLSCAASGFTFSGYTMNWVRQAPGKGLEWVSSISSRSNYAHYADSVKGRFTISRDNAKNSLYLQMNSLRAEDTAVYYCARYGRLGDRNWVFDYWGQGTLVTVSS VL: QSALTQPPSASGSPGQTVTISCTGTSTDVGAYNYVSWYQQHPGKAPKLMIYKVSKKPSGVPDRFSGSKSGNTASLTVSGLQAEDEADYFCSLRAATTGVLFGGGTKLTVLR"
reported_result = 6.68

[[record]]
binder = "6RAD2C1-4_005 (antibody, human IgG1, kappa, V domains shown, also called 6RAD2C1-4_05) VH: EVQLVESGGDLVKPGGGLRLSCAASGFTFSTHTMNWVRQAPGKGLEWVSSISSRSSYIHYADSVKGRFTISRDNAKNSLYLQMNSLRAEDTAVYYCARFGKLGERNWVFDYWGQGTLVTVSS VL: QSALTQPPSASGSPGQTVTISCTGTSTDVGDYNYVSWYQQHPGKAPKLMIYQVSKKPSGVPDRFSGSKSGNTASLTVSGLQAEDEADYFCSVRSDGHGPMFGGGTKLTVLR"
reported_result = 6.47


Please turn your attention to the following entry.
pKd in this record for 6RAD2C1-4_076 (antibody, human IgG1, kappa, V domains shown, also called 6RAD2C1-4_76) VH: EVQLVESGGDLVKPGGGLRLSCAASGFTFSGYTMNWVRQAPGKGLEWVSSISSRSSYIDYADSVKGRFTISRDNAKNSLYLQMNSLRAEDTAVYYCARYGALGQRNWVFDYWGQGTLVTVSS VL: QSALTQPPSASGSPGQTVTISCTGTSTDVGDYNYVSWYQQHPGKAPKLMIYQTSKRPSGVPDRFSGSKSGNTASLTVSGLQAEDEADYFCSSRSIKHPVFGGGTKLTVLR : 6.60
